# TEST DETAILS: NCI Yeast Anticancer Drug Screen. Data for the mec2-1 strain (AID 157)
# CONDITION INFO: S. cerevisiae mec2-1 strain, at 1.2 µM
The panel holds about 79,000 compounds, 15% with a hit somewhere; the sample as a whole holds those more often. Activity calls are given as the source filed them. Rule as the data show it: active = growth inhibition above about 70%; inactive = the rest.
Mark one answer only. Choices: T = active, F = inactive

# count of solved cases: 4
MOLECULE: CNC(=O)OCc1c(COC(=O)NC)c(-c2ccc(Cl)c(Cl)c2)n2c1SCC2
CAT: F
--
MOLECULE: c1ccc2c(c1)sc1c3cnccc3ccc21
CAT: F
--
MOLECULE: Cc1cc2c3ccccc3c3ccccc3c2nn1
CAT: F
--
MOLECULE: CCCOC(=O)C(F)C(Br)C(=O)OCCC (configuration not stated)
CAT: T

Ask: Assay result, entry CCOC(=O)c1cc([N+](=O)[O-])c(Sc2ncnc3nc[nH]c23)c([N+](=O)[O-])c1 — outcome?
Reply: F

Ask: Check the results log: what was the call for CN(C)CCOC1(Cc2ccc(F)cc2)CCC(C(C)(C)C)CC1 (configuration not stated) ?
Reply: F

Ask: What call does the record list for COc1ccc(C(=O)C(CN(C)C)CN(C)C)cc1 ?
Reply: F

Ask: # lookup: test call for Oc1[nH]c2ccccc2c1N=NC(=S)N1CCCCC1
Reply: F

Ask: Field: outcome | Entry: COc1ccc(C(=O)Oc2ccccc2Br)cc1
Reply: F

Ask: Answer briefly: the call reported for NCCNCCNc1ccc(NCCNCCN)c2c1C(=O)c1c(O)ccc(O)c1C2=O in this assay.
Reply: F

Ask: // return assay outcome for COC(=O)CC1(O)C(/C=C/c2ccccc2)C(C(=O)OC)C(=O)C(C(=O)OC)C1C(=O)OC (configuration not stated)
Reply: F

Ask: So what was the verdict on COc1cccc2c1C(=O)c1c(O)c3c(c(O)c1C2=O)CC(O)(C(O)CO)CC3OC1CC(N2CCOCC2)C(O)C(C)O1 (configuration not stated) in this test?
Reply: T

Measured values drawn from PubChem BioAssay (NCI) for this set.
